Target: SHP2-C SH2;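 also: peptide library displayed on the E. coli surface as eCPX fusions, selected cells deep-sequenced, score is each peptide's frequency after selection divided by its frequency in the input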
Assay: SH2 binding enrichment of the phosphorylated peptide, bacterial display (enrichment ratio); higher = better substrate or ligand; peptides without Tyr show the background
The following sequences are shown together with reported SH2 binding enrichment values.

>  <recordSequence>
AAGGRYDGLLG [HARS2_Y364_V368L]

>  <SH2 binding enrichment>
0.633

$$$$
>  <recordSequence>
CGSLLYGLVHQ [PRKCG_Y122]

>  <SH2 binding enrichment>
0.908

$$$$
>  <recordSequence>
ARRHPYFFAPE [ALB_Y172_Y174F]

>  <SH2 binding enrichment>
0.566

$$$$
>  <recordSequence>
AVEDQYFCVDC [FHL1_Y207_YF]

>  <SH2 binding enrichment>
0.736

$$$$
>  <recordSequence>
VVVTKYCKEEL [ATP7B_Y1078_A1074V]

>  <SH2 binding enrichment>
0.609

$$$$
>  <recordSequence>
VISNAYVDLSP [HSD17B4_Y602_A606S]

>  <SH2 binding enrichment>
0.753

$$$$
>  <recordSequence>
GEAEQYVGGGG [FAT4_Y4980]

>  <SH2 binding enrichment>
0.584

$$$$
>  <recordSequence>
PTKNDYWAMPA [WWOX_Y287_L291P]

>  <SH2 binding enrichment>
0.669

$$$$
>  <recordSequence>
FADIAYNFRHR [PAH_Y166_G171R_YF]

>  <SH2 binding enrichment>
0.872

$$$$
>  <recordSequence>
EVDELYREAPI [MYL12B_Y143]

>  <SH2 binding enrichment>
0.719

$$$$
>  <recordSequence>
RDMMDYMLQGV [CYP21A2_Y259]

>  <SH2 binding enrichment>
0.997

$$$$

----------
System: c-Abl (mouse);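 also: 11-residue human phosphosite peptides and single-mutation variants displayed on the E. coli surface, counted by deep sequencing, each peptide's frequency after selection divided by its frequency in the unselected input library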;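 also: frequency after pTyr selection over input frequency; kinase dosed for 20-30% of maximal phosphorylation in three min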
Assay: phosphorylation enrichment, bacterial display (enrichment ratio); higher = better substrate or ligand; peptides without Tyr show the background
The following sequences are shown together with reported phosphorylation enrichment values.

>  <recordSequence>
PLKFLYPNIDR [STAT1_Y668_K673R_YF]

>  <phosphorylation enrichment>
0.891

$$$$
>  <recordSequence>
RAHARYCADAC [ACOT4_Y52_R57C]

>  <phosphorylation enrichment>
0.889

$$$$
>  <recordSequence>
FLRKEYGGVNV [CBR3_Y81_L84V]

>  <phosphorylation enrichment>
0.612

$$$$
>  <recordSequence>
KLCHLYQDHMQ [WNT5A_Y86]

>  <phosphorylation enrichment>
0.597

$$$$
>  <recordSequence>
WFPANYVKLLS [ITSN1_Y1132]

>  <phosphorylation enrichment>
0.596

$$$$
>  <recordSequence>
VTRLWYPVCFG [ITK_Y336_R335W]

>  <phosphorylation enrichment>
0.89

$$$$
>  <recordSequence>
LRAGVYHEKDQ [DNM2_Y626_P627H]

>  <phosphorylation enrichment>
0.877

$$$$
>  <recordSequence>
QEALEYFMKQV [PIK3CA_Y1038_M1043V]

>  <phosphorylation enrichment>
0.597

$$$$
>  <recordSequence>
CEHRGCLFLAI [TEK_Y897_Y897C_YF]

>  <phosphorylation enrichment>
0.601

$$$$
>  <recordSequence>
IFHLSYHHNCE [PDE6B_Y227_L228H_YF]

>  <phosphorylation enrichment>
0.588

$$$$
>  <recordSequence>
ETGEPYRLSPE [EIF4G1_Y311]

>  <phosphorylation enrichment>
0.893

$$$$
